Test system: HCT-15 colon
experimental.protocol: NCI tumour cell line growth inhibition, 48 h
parameter: TGI

Find the recorded TGI belonging to "Cc1csc2nc(-c3ccc(Cl)c([N+](=O)[O-])c3)c(/C=N/N=C(N)N)n12" and report it.
3.02 µM

Note, next up: "CCCCCn1sc(=O)n(Cc2ccc(CNC(=O)OCc3ccc4cccc(O)c4n3)cc2)c1=O"
4.81 µM

Note, next up: Cc1ccc(CC(C)N)cc1 (stereo not given)
> 100 µM

Note, next up: CSCCC(NC(=O)Cc1ccc(C(=O)c2ccccc2)cc1)C(=O)O (stereo not given)
> 100 µM

Note, next up: CCC1(O)C(=O)OCc2c1cc1n(c2=O)Cc2cc3cc(N)ccc3nc2-1 (stereo not given)
3.55 µM

Note, next up: CC1(C)C2CCC13CS(=O)(=O)N1O[C@]13C(=O)O2 (stereo not given in full)
> 100 µM

Note, next up: Fc1cccc(C2SCc3nc4ccccc4n32)c1F (stereo not given)
> 100 µM

Note, next up: "Cc1cc(N(CCC#N)CCC#N)ccc1/C=C1/N=C(c2ccccc2)N(N)C1=O"
> 100 µM

Note, next up: "Cc1cccc(NC(=O)c2sc3nc4c(cc3c2N)CN(Cc2ccccc2)CC4)c1C"
> 50 µM

Note, next up: COc1nc(N)c(N=CC(OC(C)=O)C(OC(C)=O)C(COC(C)=O)OC(C)=O)c(=O)n1C (stereo not given)
> 100 µM

* * *

Tested on: SK-OV-3 ovarian
experimental.protocol: NCI tumour cell line growth inhibition, 48 h
Please provide measured GI50 for the entries that follow.

Find the recorded GI50 belonging to CCN1C(=O)N(CC)C2C1NN=c1s/c(=C\c3ccccc3Br)c(=O)n12 (stereo not given) and report it.
0.0667 µM

Note, next up: "Cc1c(C2=C(c3cn(C)c4ccccc34)C(=O)NC2=O)c2ccccc2n1C"
1.78 µM

Note, next up: COc1ccc(C2[C@@H](Cl)C(=O)N2c2cc(OC)c(OC)c(OC)c2)cc1Cl (stereo not given in full)
0.29 µM

Note, next up: C=C1CCC2[C@@H](CCC3[C@]2(C)CCC[C@]3(C)C(=O)OC)[C@@H]1CC=O (stereo not given in full)
> 100 µM

Note, next up: "O=C([CH-]C(=O)c1ccccc1)c1ccccc1.O=C([CH-]C(=O)c1ccccc1)c1ccccc1.[OH-].[OH-].[Ti+4]"
75.6 µM

* * *

Please provide measured TGI for the entries that follow.
Test system: SK-MEL-5 melanoma
experimental.protocol: NCI tumour cell line growth inhibition, 48 h
Where a SMILES comes first, the peptide text is derived from it. [ ]: non-standard residue; d: D form. The star is where a group is joined. mTyr = N[CH](Cc1cccc(O)c1)C(=O)O; Cbz = O=C(OCc1ccccc1)*; OBn = c1ccc(CO*)cc1

Find the recorded TGI belonging to "CCN(Cc1ccc(Cl)s1)c1ccc(CO)c(Cl)c1" and report it.
18.1 µM

Note, next up: COC(=O)C1=C(OC(=O)c2ccccc2)C(C(=O)OC)[C@]2(O)[C@@H](C(=O)OC)[C@H]1C[C@@H](c1ccccc1)[C@@H]2C(=O)OC (stereo not given in full)
17.4 µM

Note, next up: "Cc1ccc(S(=O)(=O)NCCSCCSCCNS(=O)(=O)c2ccc(C)cc2)cc1"
18 µM

Note, next up: "CCNC1=C(NC(=O)CC)C(=O)c2ccccc2C1=O"
> 100 µM

Note, next up: "O=C1NC(=S)N(c2ccccc2)C1=O"
> 100 µM

Note, next up: "COc1cc(/C=C(/C#N)C(N)=O)ccc1O"
> 100 µM

Note, next up: "COC(=O)C1=C(C)N2[C@H](C(=O)O)CO[C@@]2(C)[C@H](C(=O)OC)[C@H]1c1cccc([N+](=O)[O-])c1"
> 100 µM

Note, next up: "CSC(=S)N/N=C(\C)c1cccc(C)n1"
8.56 µM

Note, next up: "C/C=C(\C)c1cc(O)c(C)c2c1Oc1cc(O)c(Cl)c(C)c1C(=O)O2"
26.9 µM

Note, next up: "COc1ccc2oc(=N)c(C(=O)Nc3ccccn3)cc2c1"
> 100 µM

Note, next up: "O=[N+]([O-])c1cc(S(=O)(=O)Oc2ccccc2)ccc1Cl"
15 µM

Note, next up: COC(=O)c1c(O)ccc2c1C1(Cc3ccccc3C1=O)C(O)O2 (stereo not given)
> 100 µM

Note, next up: C/C(=C/CC[C@]1(CO)CC[C@]2(CO)[C@H](CC[C@@H]3[C@@]4(C)CC[C@H](OC5OCC(O)C(O)C5OC5OC(CO)C(O)C(O)C5O)C(C)(C)[C@@H]4CC[C@]32C)[C@H]1O)CO (stereo not given in full)
> 100 µM

Note, next up: "Cc1ccc(/C(O)=C/C(=O)C(=O)NN=C(c2ccccc2)c2ccccc2)cc1"
> 100 µM

Note, next up: COc1ccc(-n2cnc3c(NC(CCSC)C(=O)O)ncnc32)cc1 (stereo not given)
> 100 µM

Note, next up: COC(=O)CC1NC(=O)C1C1(C)OCCO1 (stereo not given)
> 100 µM

Note, next up: CCC1(O)C(=O)OCc2c1cc1n(c2=O)Cc2cc3cc(N)ccc3nc2-1 (stereo not given)
0.0761 µM

Note, next up: "COC(=O)C(C)(C)N=CN(C)C"
> 100 µM

Note, next up: "CCOc1ccc(-n2nnc3c(N)nc(N)nc32)cc1"
> 100 µM

Note, next up: COc1cc2c(c(OC)c1OC)-c1ccc(SC)c(=O)cc1[C@@H](NC1OC(CO)C(O)C(O)C1O)CC2 (stereo not given in full)
0.195 µM

Note, next up: CC1(O)OC(=O)C2=C1CCC1C2CCC2(C)C(O)CCC12 (stereo not given)
> 100 µM

Note, next up: COC(=O)C(Cc1cccc(O)c1)NC(=O)C(CC(=O)OCc1ccccc1)NC(=O)OCc1ccccc1 (stereo not given) (Cbz-Asp(OBn)-[mTyr]-OMe; configuration not given here)
> 100 µM

Note, next up: CC1(C)OCC(C(O)C2OC(C)(C)OC2/C=N\O)O1 (stereo not given)
> 100 µM

Note, next up: "O=c1onc2c3ccccc3ncn12"
> 100 µM

Note, next up: COc1ccc2cc(-c3c(-c4ccncc4)nc(-c4ccc(S(C)=O)cc4)n3C)ccc2c1 (stereo not given)
> 21.2 µM

Note, next up: "CC1=NN(C(=O)CSc2nc3ccc(I)cc3c(=O)n2Cc2ccccc2)C(=O)C1"
55.2 µM

Note, next up: CC(C)C1=CC23CCC4C(C)(C(=O)O)CCCC4(C)C2CC1C1C(=O)N(c2ccc(C(=O)O)cc2)C(=O)C13 (stereo not given)
> 100 µM

Note, next up: "N#CN1CC[C@H](C(=O)Nc2ncc(-c3ccncc3)s2)C1"
5.58 µM

Note, next up: CC(C)=CCC/C(C)=C/CC/C(C)=C/CC/C=C(\C)CC/C=C(\C)CCC(=O)Nc1ccn(C2OC(CO)C(O)C2(F)F)c(=O)n1 (stereo not given)
4.75 µM

Note, next up: "COc1ccc(C(=O)N2c3ccccc3Sc3ccccc32)c(OC)c1"
> 100 µM

Note, next up: Cc1ccc(C2=Nc3ccccc3SC(c3cccc([N+](=O)[O-])c3)C2)cc1 (stereo not given)
> 100 µM

Note, next up: COC1O[C@@H]2C[C@H]3C(C)(C)CCC[C@]3(C)C3=CCCC1[C@@]32C (stereo not given in full)
> 100 µM

Note, next up: "c1ccc(CSCCc2ccncc2)cc1"
> 100 µM

Note, next up: "Brc1ccc(-c2cn3ccncc3n2)cc1"
> 100 µM

Note, next up: C=C1CCC2[C@@H](CCC3[C@]2(C)CCC[C@]3(C)C(=O)OC)[C@@H]1CC=O (stereo not given in full)
32.5 µM

Note, next up: "COc1ccc(-c2cc(=O)c3c(OC)c(OC)c(OC)c(OC)c3o2)cc1"
> 100 µM

Note, next up: "CCCCCCCCCCCCCP(=O)(O)NCC(N)=O"
> 100 µM

Note, next up: C[C@@H]1O[C@@H](O[C@H]2CC[C@@]3(C)[C@H](CCC4[C@@H]3C(O)C[C@]3(C)[C@@H](c5ccc(=O)oc5)CC[C@]43O)C2)[C@H](O)[C@H](O)[C@H]1O (stereo not given in full)
0.0107 µM

Note, next up: "BrCc1ccc(CBr)cc1"
40.2 µM

Note, next up: "COc1ccc(C(=O)c2[nH]c(Nc3ccc(Cl)cc3)c(C(=S)Nc3ccccc3)c2N)cc1"
> 100 µM
